- TEST TARGET: T1, Formyl peptide receptor like 1 (FPRL1) (human, UniProt P25090 1-351)
- T1 construct: whole, on cells; The endogenous receptor was tested on human neutrophils and macrophages
- T1 sequence (looked up): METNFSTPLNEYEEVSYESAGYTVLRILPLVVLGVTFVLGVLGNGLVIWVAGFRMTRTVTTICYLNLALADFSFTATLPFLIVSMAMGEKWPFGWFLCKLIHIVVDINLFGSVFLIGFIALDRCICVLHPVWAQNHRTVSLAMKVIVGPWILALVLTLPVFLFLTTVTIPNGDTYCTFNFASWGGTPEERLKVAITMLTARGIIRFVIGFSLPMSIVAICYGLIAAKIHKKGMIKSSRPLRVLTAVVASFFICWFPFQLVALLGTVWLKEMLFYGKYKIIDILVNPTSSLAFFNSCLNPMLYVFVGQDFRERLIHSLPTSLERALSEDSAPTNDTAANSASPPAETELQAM
- TEST NAME: displacement of 125I-WKYMVm (50 pM) from FPRL1-expressing RBL-2H3 cells
Where no end group is shown, it is not given here.
METRIC NAME: IC50 (nM)

Worked examples, 2 binders total:
1. RHWWWW-NH2 [Arg-His-Trp-Trp-Trp-Trp-CONH2 (RHWWWW, RHW^4)]    3200
2. RRWWWW-NH2 [Arg-Arg-Trp-Trp-Trp-Trp-CONH2 (RRWWWW, RRW^4)]    2400

P. DRWWWW-NH2 [Asp-Arg-Trp-Trp-Trp-Trp-CONH2 (DRWWWW, DRW^4)]
Q. WRWWWW-NH2 [Trp-Arg-Trp-Trp-Trp-Trp-CONH2 (WRWWWW, WRW^4)]
IN: // compare measured IC50 between P and Q ; output the lower one Return value: the label identifying the chosen record.
OUT: Q
(Q: 230 nM, P: 3400 nM)

// provenance: patent US20080274978A1
